- STUDY_TARGET: cIAP2-BIR3 (Homo sapiens (Human))
- Sequence (Q13489 238-349): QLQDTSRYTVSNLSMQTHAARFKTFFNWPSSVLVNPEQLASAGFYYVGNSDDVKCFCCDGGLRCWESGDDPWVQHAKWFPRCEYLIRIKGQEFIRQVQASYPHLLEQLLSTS
- EXPERIMENTAL_PROTOCOL: BIR binding assay (FRET competition), cIAP2 BIR3
REPORTED_METRIC: IC50

Example entries begin here.
SMI | IC50
C[C@@H]1CN(CC(=O)N2CC(C)(C)c3[nH]c(=O)c(Cc4ccc(F)cc4)cc32)[C@@H](CN2CCN(C(=O)COc3ccc(OCC(=O)N4CCN(C[C@H]5CN[C@H](C)CN5CC(=O)N5CC(C)(C)c6[nH]c(=O)c(Cc7ccc(F)cc7)cc65)[C@H](C)C4)cc3)C[C@H]2C)CN1 | 15.8 to 31.6 nM
C[C@@H]1CN(CC(=O)N2CC(C)(C)c3[nH]c(=O)c(Cc4ccc(F)cc4)cc32)[C@@H](CN2CCC(CCCOc3cccc(OCCCC4CCN(C[C@H]5CN[C@H](C)CN5CC(=O)N5CC(C)(C)c6[nH]c(=O)c(Cc7ccc(F)cc7)cc65)CC4)c3)CC2)CN1 | 7.94 to 15.8 nM
Cc1ccc(Oc2cc3c([nH]c2=O)C(C)(C)CN3C(=O)CN2C[C@@H](C)NC[C@@H]2CN2CCO[C@H](C(=O)NCc3ccc(CNC(=O)[C@@H]4CN(C[C@H]5CN[C@H](C)CN5CC(=O)N5CC(C)(C)c6[nH]c(=O)c(Oc7ccc(C)cc7)cc65)CCO4)cc3)C2)cc1 | 1.38 to 7.94 nM

Ask: Requested read-out: IC50. Entry: C[C@@H]1CN(CC(=O)N2CC(C)(C)c3[nH]c(=O)c(Cc4ccc(F)cc4)cc32)[C@@H](CN2CCO[C@H](C(=O)NC3CCN(C(=O)[C@@H]4CN(C[C@H]5CN[C@H](C)CN5CC(=O)N5CC(C)(C)c6[nH]c(=O)c(Cc7ccc(F)cc7)cc65)CCO4)CC3)C2)CN1
Result: 7.94 to 15.8 nM

###

Reported EC50 values are given for each entry in this list.
- Tested on: Jurkat HIV-luciferase clones
- EXPERIMENTAL_PROTOCOL: Jurkat latency reversal assay
- Format: cell-based
- CONDITIONS_USED: Homo sapiens, 48 h; Jurkat latency reversal assay potency; read-out: Jurkat pEC50 (converted)

Here are 3 molecules together with their reported answers.
MOLECULE | EC50
C[C@@H]1CN(CC(=O)N2CC(C)(C)c3[nH]c(=O)c(Cc4ccc(F)cc4)cc32)[C@@H](CN2CCO[C@H](COc3cc(C#N)cc(OC[C@@H]4CN(C[C@H]5CN[C@H](C)CN5CC(=O)N5CC(C)(C)c6[nH]c(=O)c(Cc7ccc(F)cc7)cc65)CCO4)c3)C2)CN1 [Example 76] | 0.49 to 12.6 nM
C[C@@H]1CN(CC(=O)N2CC(C)(C)c3[nH]c(=O)c(Cc4ccc(F)cc4)cc32)[C@@H](CN2CCC(CCCOc3cccc(OCCCC4CCN(C[C@H]5CN[C@H](C)CN5CC(=O)N5CC(C)(C)c6[nH]c(=O)c(Cc7ccc(F)cc7)cc65)CC4)c3)CC2)CN1 [Example 109] | 12.6 to 63.1 nM
C[C@@H]1CN(CC(=O)N2CC(C)(C)c3ncc(Nc4ccc(F)cc4)cc32)[C@@H](CN2CCO[C@H](COc3cccc(OC[C@@H]4CN(C[C@H]5CN[C@H](C)CN5CC(=O)N5CC(C)(C)c6ncc(Nc7ccc(F)cc7)cc65)CCO4)c3)C2)CN1 [Compound 143] | 316 to 3310 nM

Ask: I have this molecule here, C[C@@H]1CN(CC(=O)N2CC(C)(C)c3[nH]c(=O)c(Cc4ccc(F)cc4)cc32)[C@@H](CN2CCO[C@H](COc3cccc(OC[C@@H]4CN(C[C@H]5CN[C@H](C)CN5CC(=O)N5CC(C)(C)c6[nH]c(=O)c(Cc7ccc(F)cc7)cc65)CCO4)c3)C2)CN1 [Example 69] , and I need its recorded EC50.
Result: 0.49 to 12.6 nM
